For each entry below, report its EC50 value.
target: T1, human RAGE expressed on CHO cells (human, UniProt Q15109 23-404); experiment: cell ELISA on CHO-RAGE cells, A450 corrected for control CHO cells
T1 construct: whole, on cells; also called CHO-RAGE cells; cell surface expressed human RAGE
T1 sequence (Q15109 23-404): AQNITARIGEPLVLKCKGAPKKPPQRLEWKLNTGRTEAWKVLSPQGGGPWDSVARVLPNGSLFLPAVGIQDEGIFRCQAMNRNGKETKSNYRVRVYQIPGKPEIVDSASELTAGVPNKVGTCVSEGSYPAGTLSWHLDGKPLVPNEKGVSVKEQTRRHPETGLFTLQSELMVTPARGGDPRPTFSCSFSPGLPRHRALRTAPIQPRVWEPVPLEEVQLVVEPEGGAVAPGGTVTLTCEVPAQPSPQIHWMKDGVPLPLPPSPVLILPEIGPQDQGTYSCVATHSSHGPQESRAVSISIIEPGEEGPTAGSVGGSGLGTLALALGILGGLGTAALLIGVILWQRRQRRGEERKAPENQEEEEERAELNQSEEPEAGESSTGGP
Give bare numbers, in µg/mL.

Look over these answered cases.
5A3 scFv-Fc fusion (Fc fusion, not shown: wild-type human IgG Fc (hinge and constant domains)) DIQMTQSPSSLSASVGDIVTITCRASQDVGIYVNWFQQKPGKAPRRLIYRATNLADGVPSRFSGSRSSTDFTLTISSLQPEDFATYYCLEFDEHPLTFGGGTKVEIKDGGGSGGGGSGGGGSSEVQLVESGGGLVQPGGSLRLSCAASGFTFNNYWMTWVRQAPGKGLEWVASIDNSGDNTYYPDSVKDRFTISRDNAKNSLYLKMNSLRAEDTAVYYCTRGGDITTGLDYWGQGTLVTVSS :: 0.096
10G10 scFv-Fc fusion (Fc fusion, not shown: wild-type human IgG Fc (hinge and constant domains)) DIQMTQSPSSLSASVGDRVTITCRASQDVGIYVNWFQQKPGKAPRRLIYRATNLADGVPSRFSGSRSGTDFTLTISSLQPEDFATYYCLEFDEHPLTFGGGTRVEIKDGGGSGGGGSGGGGSSEVQLVESGGGLVQPGGSLRLSCAASGFTFNNYWMSWVRQAPGKGLEWVASIDNSGENTYYPDSVKDRFTISRDNAKNSLYLQMNSLRAEDTAVYYCARGGDITTGFDYWGQGTLVTVSS :: 0.133

Next up:
Record 6B6 scFv-Fc fusion (Fc fusion, Substitutions derived from the printed HCDR3; not shown: wild-type human IgG Fc (hinge and constant domains)) DIQMTQSPSSLSASVGDRVTITCRASQDVGIYVNWFQQKPGKAPRRLIYRATNLADGVPSRFSGSRSGTDFTLTISSLQPEDFATYYCLEFDEHPLTFGGGTKVEIKDGGGSGGGGSGGGGSSEVQLVESGGGLVQPGGSLRLSCAASGFTFNNYWMTWVRQAPGKGLEWVASIDNSGDNTYYPDSVKDRFTISRDNAKNSLYLQMNSLRAEDTAVYYCARGGDIIISLDWWGQGTLVTVSS . Reported EC50: 0.0285
